test: yeast display, Sf9 membrane polyspecificity reagent, FACS + sequencing; frameworks hold sequencing errors
measurement kind: polyreactivity (PSR sort gate)

Sample records with polyreactivity (PSR sort gate):
construct sequence: QVQLVESGGALVQAGGSLRLICAASGSTFDSNVKGWSRTAPGKERELVAVINGSGSNTYYADSVKGRFTISRDNAKNTVYLQMNSLKPEDTAVYYCNKRYWGGRYGYDYWGQGTQVTVSS
measurement kind: polyreactivity (PSR sort gate)
experimental result: high polyreactivity

construct sequence: QVQLVESGGGLVQAGGSLRLSCAASGRIFAFYAMGWYRQAPGKERELVAAISWSGGSTYYADSVKGRFTISRDNAKNTVYLQMNSLKPEDTAVYYCAAYRTRGSAYPYDYWGQGTQVTVSS
measurement kind: polyreactivity (PSR sort gate)
experimental result: high polyreactivity

construct sequence: QVQLVESGGGLVQAGGSLSLSCAASGRIFRRYAMGWYRQAPGKEREFVAAISYGGGSTYYADSVKGRFTISRDNAKNTVYLQMNSLKPEDTAVYYCNADVPKSLLLYYPWGYGYWGQGTQVTVSS
measurement kind: polyreactivity (PSR sort gate)
experimental result: low polyreactivity

construct sequence: QVQLVESGGGLVQAGGSLRLSCAASGSTFARNAMGWYRQAHGKERELVAAITNAGDTNYADSVKGRFTISRDNAKNTVYLQMNSLKPVDTAVYYCAADPILIDEYWGQGTQVTVSS
measurement kind: polyreactivity (PSR sort gate)
experimental result: low polyreactivity

construct sequence: QVQLVESGGGLVQAGRSLRLSCAPSGLTISSNAMGGYRQAPGKERELVAGISRRGGRTYYADSVKGRFTISRDTAKHTVYLQMNSLKPEDTAVYYCAADRVGNSYDYWGQGTQGTVSS
measurement kind: polyreactivity (PSR sort gate)
experimental result: high polyreactivity

Q: For the sequence `QVQLVESGGGLVQAGGSLRLSCAASGRTYYPNAIGWYRQAPGKEMDLVADITYSGASTYYADSVKGRFTISRDNAKNTVYLQMNSLKPEDTAVYYCAVPGATSYFAYDSWGQGTQVTVSS` , report polyreactivity (PSR sort gate).
Result: low polyreactivity

Q: For the sequence `QVQLQESGGGLVQAGGSLRLSCAPSGSISRYYDMGWYRQAPGKEREYVAGISGGAITYYADSVKGRFTISRDNAKNTVYLQMNSLKPEDTAVYYCAADTCVYQYHSYWGQGTQVTVSS` , give its reported polyreactivity (PSR sort gate).
Result: low polyreactivity

Q: Specify reported polyreactivity (PSR sort gate) for the sequence shown: `QVQLVESGGGLVQAGGSLRLSCAASGLTFRQYAMGWYRQAPGKERELVAAIDTGASTNYADSVKGRFTISRDNAKNTVYLQMNSLKPEDTAGYYCNAELWYGPDELTGDYWGQGTQVTVSS`
Result: low polyreactivity

Q: For `QVQLVESGGGLVQAGGSLRLSCAASGSIFYRYAMGGYRQAPGKERELVAAISSRGGSTYYADSVKGRFTISRDTAKNTVYLQMNSLKPEDTAVYYCNKDNHDLELPVEFEYWGQGTQVTVSS` , write its polyreactivity (PSR sort gate).
Result: high polyreactivity

Q: Give a short answer stating reported polyreactivity (PSR sort gate) for `QVQLVESGGGLVQAGGSLRLSCAASGSIFTYYAMGWYRQAPGKERELVAAITSTGGSTYYADSVKGRFTISRDNAKNTVYLQMNSQKPEDTAVYYCATDYGYYDYWGQGTQVTVSS` .
Result: low polyreactivity

Q: Item `QVQLVESGGGLVQAGGSLRLSCAASGGIFGHNAMGWYRQAPGKERELVAAISYTGGSTYYADSVKGRFTISRDNAKNTVNLQMNSLKPEDTAVYYCNAVQRRFRYPFDYWGQGTQVTVSS` : provide polyreactivity (PSR sort gate)
Result: low polyreactivity

// data source = the nanobody polyreactivity screen of Harvey et al. (2022)
